Molecular target: T1, Furin (recombinant, truncated) (mouse), P23188
T1 chain: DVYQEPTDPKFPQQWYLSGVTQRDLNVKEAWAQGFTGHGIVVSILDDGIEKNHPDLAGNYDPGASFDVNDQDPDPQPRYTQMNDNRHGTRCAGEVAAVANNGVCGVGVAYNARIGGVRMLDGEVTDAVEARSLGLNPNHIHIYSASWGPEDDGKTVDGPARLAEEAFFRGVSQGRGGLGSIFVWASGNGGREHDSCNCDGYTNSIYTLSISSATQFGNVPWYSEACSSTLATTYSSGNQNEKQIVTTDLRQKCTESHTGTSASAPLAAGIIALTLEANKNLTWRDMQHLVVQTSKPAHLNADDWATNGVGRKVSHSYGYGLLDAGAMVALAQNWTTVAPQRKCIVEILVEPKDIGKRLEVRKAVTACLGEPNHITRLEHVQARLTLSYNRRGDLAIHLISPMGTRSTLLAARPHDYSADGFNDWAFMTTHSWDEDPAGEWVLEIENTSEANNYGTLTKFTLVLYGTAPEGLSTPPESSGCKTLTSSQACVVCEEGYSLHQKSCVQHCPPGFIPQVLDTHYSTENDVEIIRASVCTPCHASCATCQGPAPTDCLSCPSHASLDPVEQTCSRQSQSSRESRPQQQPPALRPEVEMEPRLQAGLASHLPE
Details: modification not given
MEASUREMENT_TYPE: pKi
Please treat pKi as minus the base-10 logarithm of the molar concentration.

So what does the record say about pKi for RRRRRRR [Hepta-L-arginine] ?
7.17
